src = PubChem BioAssay (NCI)

- assay_comment: NCI Yeast Anticancer Drug Screen. Data for the cln2 rad14 strain (AID 165);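 note: 0% = growth equal to vehicle treated cultures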
- experimental_parameters: S. cerevisiae cln2 rad14 strain, at 50.0 µM, active compounds read high
This is part of a sample that, as a whole, favours compounds with a hit. Of some 79,000 tested, about 15% had one in any assay.
Below, each of the compounds is paired with its reported growth inhibition value.
Please state the figure in %; there is no need to write the unit.

q: Supply reported growth inhibition belonging to this compound: Cc1nc(-n2nc(-c3ccccc3)cc2-c2ccccc2)sc1C(/C=C/c1ccc([N+](=O)[O-])cc1)=N/NC(N)=S
a: -18.3

q: Look up growth inhibition of Cc1ccc(CSCc2c(CSCc3ccc(C)cc3)c(CSCc3ccc(C)cc3)c(CSCc3ccc(C)cc3)c(CSCc3ccc(C)cc3)c2CSCc2ccc(C)cc2)cc1 and report it.
a: 29.8

--- query ---
q: Fill in reported growth inhibition for this entry: O=[N+]([O-])c1ccc(COP(=O)(O)OCc2ccc([N+](=O)[O-])cc2)cc1
a: -9.55

----------
Listed here: items and their measured growth inhibition.
- assay_comment: NCI Yeast Anticancer Drug Screen. Data for the rad50 strain (AID 155);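 note: 0% = growth of vehicle-only cultures of the same strain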
- experimental_parameters: S. cerevisiae rad50 strain growth inhibition; at 50.0 µM; active compounds read high
The panel holds about 79,000 compounds, 15% with a hit somewhere; the sample as a whole holds those more often.
Use % as the unit, but write only the number.

Completed entries (count: 2):
q: Answer with the recorded growth inhibition for the compound listed here: Brc1ccc(/C=C/c2ccnnc2)cc1
a: 41.5

q: Recall and state the measured growth inhibition for Nc1nc(=O)n(C2OC(CO)C(O)C2O)cc1F (stereo unspecified) .
a: 10.8

Next:
q: Report growth inhibition, nothing else, for this compound: COC(=O)c1nc(N)nc(C(=O)OC)c1C(=O)c1ccccn1
a: -12.1

q: Could you please provide reported growth inhibition for COc1cc(C2(C)OC(=O)c3ccccc32)c(OC)c2ccccc12 (stereo unspecified) ? Thanks!
a: 27.9

q: Determine from records and report growth inhibition for CC(=O)N(c1ccccc1)c1ccccc1
a: 12.8

q: Provide measured growth inhibition value, entry: NC(=O)N(CCO)/N=C/c1ccc([N+](=O)[O-])o1
a: 42.3

q: Output growth inhibition of ClC1=C(Cl)C2(Cl)C3C(c4ccc(I)cc4C4C3C3(Cl)C(Cl)=C(Cl)C4(Cl)C3(Cl)Cl)C1(Cl)C2(Cl)Cl (stereo unspecified)
a: 14.6

q: Identify the reported growth inhibition for the following entry. O=S(=O)(c1ccccc1)c1ccc(CBr)cc1
a: 16.1

----------
- assay_comment: NCI Yeast Anticancer Drug Screen. Data for the bub3 strain (AID 167)
- experimental_parameters: S. cerevisiae bub3 mutant strain, at 50.0 µM, active compounds read high
Compounds without any hit were thinned out: in the full panel of roughly 79,000, 15% have a hit.
# Lookup of reported growth inhibition keyed by entry
Just the number in %, nothing appended.

q: Please report the measured growth inhibition for Cn1cc([N+](=O)[O-])cc1C(=O)Nc1cc(C(=O)Nc2ccc(S(=O)(=O)O)c3cc(S(=O)(=O)O)ccc23)n(C)c1
a: 20.4

q: Provide measured growth inhibition value, entry: N#C/C(=C/n1c(=S)[nH]c2ccc([N+](=O)[O-])cc21)C(N)=O
a: -24

Continuing:
q: Return the recorded growth inhibition value; entry: CC1(C)CC(=O)C(C=O)C(=O)C1
a: 3

q: Fill in growth inhibition for record CN(c1ccccc1)S(=O)(=O)c1cccc([N+](=O)[O-])c1
a: 24.3

q: Output measured growth inhibition for this item: CC1Oc2ccc3ccccc3c2C(C)N1C (stereo unspecified)
a: 1.3

q: Supply reported growth inhibition belonging to this compound: Cn1c(=O)c2c(ncn2C2C(=O)NNC2=O)n(C)c1=O
a: 7.55

q: Kindly indicate its recorded growth inhibition. Item: Cc1cccc([Si](c2ccccc2)(c2ccccc2)c2ccccc2)c1
a: -21.6

q: Give growth inhibition for the following compound: CC(C)CN(CC(=O)NC(=O)c1ccccc1)CC(C)C
a: -4

q: Using the record for CC(C)(O)C(Br)(Br)Br , state its measured growth inhibition.
a: -21.9

q: For the compound O=C(Cc1ccccc1)NN1C(=O)/C(=C\c2ccccc2)SC1=Nc1ccccc1 , give its measured growth inhibition value.
a: 9.15

q: Give the reported growth inhibition for this compound. Clc1ccccc1C=NC1CCCCC1
a: -5.85

----------
- assay_comment: NCI Yeast Anticancer Drug Screen. Data for the sgs1 mgt1 strain (AID 161);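 note: 0% = growth of cultures given vehicle only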
- experimental_parameters: S. cerevisiae sgs1 mgt1 strain, at 50.0 µM
- Experimental: Growth inhibition of yeast strains with defined genetic alterations is measured as a screen for potential anti-cancer activity. Selected strains with alterations in DNA damage repair or cell cycle control were exposed to compounds and growth inhibition was measured relative to vehicle treated controls. The strain used in this assay is sgs1 mgt1
This is part of a sample that, as a whole, favours compounds with a hit. Of some 79,000 tested, about 15% had one in any assay. Calls of active or inactive are those of the source. No stated cut-off is given here; in the data, active means growth inhibition above about 70%; inactive means the rest.
Hi there, use one of these labels in your reply, thanks! 1.0 (active), 0.0 (inactive)

Here are 10 compounds together with their reported answers.
q: Tell me the recorded outcome of this test for CSc1nnc(COc2ccc(Cl)cc2)o1 .
a: 0.0

q: Per the records of this test, what outcome belongs to NS(=O)(=O)c1ccc(N=Cc2ccccc2)cc1 ?
a: 0.0

q: How was SC1CCCN(Cc2ccccc2)C1 (stereo unspecified) classified in this test?
a: 0.0

q: Please state the recorded outcome for this compound: C=C(Br)CNCC(=C)Br
a: 0.0

q: Each compound tested received a call. Report the one for CC1=CC2=C(C(N)=O)C(=O)OC2(C)C(c2ccccc2)C1 (stereo unspecified) .
a: 0.0

q: Please let me know the test result on file for O=C(O)C(C(=O)O)C1CCCCCC1 .
a: 0.0

q: What outcome does the record of this test show for COc1ccc2c(c1)OC[C@@H]1c3cc(NC(=O)c4ccccc4)c(OC)cc3N(S(=O)(=O)c3ccccc3)[C@H]21 ?
a: 0.0

q: Identify the outcome logged in this assay for the compound shown: CC(NC(=O)CNC(=O)CN)C(N)=O (stereo unspecified)
a: 0.0

q: # lookup: test call for Cc1cc(C)nc(Sc2c([N+](=O)[O-])ncn2C)n1
a: 0.0

q: # outcome recorded in this test, key = O=C(CCl)NC(=O)NC1=C(Cl)C(=O)c2ccccc2C1=O
a: 1.0

Further cases:
q: Just curious, what result did CC(C)c1cccc(C(C)C)c1NC(=O)OC1CCCCC1 get here?
a: 0.0

q: Could you check what this test reported for CN1CCN(c2ccncc2S(=O)(=O)N2CCN(C)CC2)CC1 ?
a: 0.0

q: What was the test verdict on COCCCC(O)CNC(C)C (stereo unspecified) ?
a: 0.0

q: Short answer needed: outcome of this test for CNc1nc2c(C)ccc3[nH]c(NC)nc3c-2n1 ?
a: 0.0

q: // outcome(item) with item = CCCCCOc1ccc2ccccc2c1
a: 0.0

----------
- assay_comment: NCI Yeast Anticancer Drug Screen. Data for the mec2-1 strain (AID 157)
- experimental_parameters: S. cerevisiae mec2-1 strain, at 50.0 µM, active compounds read high
This is part of a sample that, as a whole, favours compounds with a hit. Of some 79,000 tested, about 15% had one in any assay.
measured_property: growth inhibition (%)
Use % as the unit, but write only the number.

Example results:
q: Give a short answer stating reported growth inhibition for CC(=O)c1cc2ccccc2n(O)c1=N .
a: -10.8

q: For the compound CNc1ccc(/C=C/c2ccnc3ccccc23)cc1 , give its measured growth inhibition value.
a: 46.2

q: Tell me measured growth inhibition for CCC(=O)N(C)[C@@H]1Oc2ccc(O)cc2[C@]1(C)c1cc(O)ccc1O please.
a: 2.25

Others:
q: In one line, give reported growth inhibition of the entry C[C@H](CCC(=O)O)[C@H]1CC[C@H]2[C@@H]3CC[C@@H]4C[C@H](O)CC[C@]4(C)[C@H]3CC[C@]12C .
a: 31.4

q: Provide measured growth inhibition value, entry: CCN(CC)CCn1[nH]c2c3ccc(=O)cc3sc3c(NCCN)ccc1c32
a: -3.35

q: For the compound Cc1ccc(NC(=O)C(C)S)cc1 (configuration not stated) , give its reported growth inhibition.
a: 11.6

q: Give the reported growth inhibition for this compound. CCN(CC)CCOc1cccc(O)c1
a: -16.1

q: Identify measured growth inhibition corresponding to O=C(O)C(CO)N=Cc1nc(-c2ccccc2)oc1O (configuration not stated)
a: 6.05

----------
- assay_comment: NCI Yeast Anticancer Drug Screen. Data for the rad50 strain (AID 155);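 note: 0% = growth of vehicle-only cultures of the same strain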
- experimental_parameters: S. cerevisiae rad50 strain growth inhibition; at 50.0 µM; active compounds read high
Compounds without any hit were thinned out: in the full panel of roughly 79,000, 15% have a hit.
measured_property: growth inhibition (%)
Report as a plain number; the unit % is understood.

Illustrative cases are given below, each with its answer.
q: Tell me measured growth inhibition for CC1(C)COC(CCl)OC1 please.
a: 27.1

q: Indicate the recorded growth inhibition value for this compound: CCCCCC(=O)OCC(CC)CC
a: -8.05

q: Check the records and state growth inhibition for CS(=O)(=O)OC1CC/C=C\CCC1OS(C)(=O)=O (stereo not drawn)
a: 1.3

Next:
q: Assign growth inhibition to the following record: CCC(=O)N(C)[C@@H]1Oc2ccc(O)cc2[C@]1(C)c1cc(O)ccc1O
a: 0.35

q: Tell us which growth inhibition value is on record for C=CCNC(=O)/C(C)=C(\C)c1ccc(F)cc1
a: 4.15

q: Write down growth inhibition measured for item CC(=O)NC1C(O)OC(COCc2ccccc2)C(OCc2ccccc2)C1OCc1ccccc1 (stereo not drawn)
a: 6.9

q: Identify measured growth inhibition associated with CC(O)c1nc2c3ccccc3ccc2n1C (stereo not drawn)
a: -6.15

q: Look up and state reported growth inhibition for CN(C)CCC(=O)N1CCc2c([nH]c3ccccc23)C1c1cccnc1 (stereo not drawn)
a: -15.2

q: Tell us which growth inhibition value is on record for Cc1ccc(-n2[nH]nc(C#N)c2=O)cc1
a: -6.75

q: Quick one: give measured growth inhibition for COC(=O)Nc1c2ccccc2c(NC(=O)OC)c2ccccc12
a: -7.15

q: Respond only with growth inhibition recorded for COc1ccc(Cc2c(O)ccc3ccccc23)cc1
a: 98.6

q: Please give measured growth inhibition of the following entry: CCCCCCCCCCCCCCCCCC(=O)N/N=C/c1ccc(O)cc1
a: -22.3

q: Identify measured growth inhibition associated with CC(Nc1ncccn1)Nc1ncccn1
a: -6.4

q: Please report the measured growth inhibition for CC1NCCC(CC(=O)O)C1CC(=O)O (stereo not drawn)
a: -7.55

q: Respond only with growth inhibition recorded for O=C1CCC2(CC1)SCCCS2
a: -0.6

q: // fetch growth inhibition given entry Cc1ccc(S(=O)(=O)NN=C2CCS(=O)CC2)cc1 (stereo not drawn)
a: -19.6

q: Return growth inhibition (reported value) for this compound: C=CCCCCCCCCC(=O)NCC1CCCCO1 (stereo not drawn)
a: 2.8
